Data provenance is the OligoGym collection.

Record form. Attribute: target mRNA inhibition. Fill in for each entry.
Molecular target: ANGPTL2
Conditions: ASO, 5 µM
After the bases stand the sugars from the 5' end (letter, count) and the backbone: PS all phosphorothioate, else s phosphorothioate and o phosphodiester by linkage. Methylation of C is not given here. l = locked nucleic acid (LNA); d = 2'-deoxy (DNA)
Give bare numbers, in %.

Example sequences with recorded target mRNA inhibition:
- SEQ_STRING: "AGCTCATTGTTGAGCAG (sugars l1 d13 l3, PS)"
  UNIT_INFO: "%"
  TEST_VALUE: 4.81
- SEQ_STRING: "TGAAGGAAAGTAGGAGGGA (sugars l1 d15 l3, PS)"
  UNIT_INFO: "%"
  TEST_VALUE: 10.6
- SEQ_STRING: "TGATGCGGTTGTAGGT (sugars l2 d12 l2, PS)"
  UNIT_INFO: "%"
  TEST_VALUE: 73.2
- SEQ_STRING: "CTCCGGTAATGGCCC (sugars l1 d12 l2, PS)"
  UNIT_INFO: "%"
  TEST_VALUE: -5

I'm hoping you can list target mRNA inhibition for every sequence here, please.
1. TGGGCATAGTGGGCAGA (sugars l1 d14 l2, PS)
2. TGGTTGATGATGCGGTTG (sugars l2 d14 l2, PS)

[out]
[58.9, 77.6]

* * *

Molecular target: KRAS
Settings: ASO, A431, 2 µM
After the bases stand the sugars from the 5' end (letter, count) and the backbone: PS all phosphorothioate, else s phosphorothioate and o phosphodiester by linkage. Methylation of C is not given here. e = 2'-O-(2-methoxyethyl) (MOE); k = constrained ethyl (cEt); d = 2'-deoxy (DNA)
PARAMETER: target mRNA inhibition (%)
One number for each entry, in %.

Worked examples, 5 sequences total:
- SEQ_STRING: "CAGTGTGACTCAGTTA (sugars kdddddddddkekeke, PS)"
  TARGET_DESC: "KRAS"
  TEST_VALUE: 54
- SEQ_STRING: "GTACTAGTATGCCTTA (sugars k3 d10 k3, PS)"
  TARGET_DESC: "KRAS"
  TEST_VALUE: 50
- SEQ_STRING: "CTTGTTGAGCTATCCA (sugars k3 d10 k3, PS)"
  TARGET_DESC: "KRAS"
  TEST_VALUE: 63
- SEQ_STRING: "TAGTGATTAGGTCAAA (sugars kkddddddddddkeke, PS)"
  TARGET_DESC: "KRAS"
  TEST_VALUE: 34
- SEQ_STRING: "CATTCAAAGTTCACAT (sugars kddddddddddkekek, PS)"
  TARGET_DESC: "KRAS"
  TEST_VALUE: 43

For every record below, what is its target mRNA inhibition?
1. CAACTGCATGCACCAA (sugars k3 d10 k3, PS)
2. TCTATGAAAGCTCAAA (sugars k3 d10 k3, PS)

[out]
1: 31; 2: 18

Hi, could you look up target mRNA inhibition for each item in my list?
1. ATTCAAAGTTCACATA (sugars k3 d10 k3, PS)
2. AGGAGTCTTTATAGTA (sugars kdddddddddkekeke, PS)
3. ATGCTGTGAAACTCTC (sugars kkdddddddddkekek, PS)
4. ATCTTGTTGAGCTATC (sugars k3 d10 k3, PS)
5. ATGTAGGGCATTTCTG (sugars k3 d10 k3, PS)

[out]
0
24
16
40
9
